# TEST METHOD NOTES: in vivo
# DETAILS: C3HeB/FeJ, mouse, po, 150 mg/kg, t1/2, C3HeB/FeJ, plasma, single 150 mg/kg oral dose of PZA, 2.5–8 h terminal
Consider the following compounds and their measured half-life readings.

COMPOUND: O=C(O)c1cnccn1 [POA, pyrazinoic acid]
half-life [min]: 144
//
COMPOUND: NC(=O)c1cnccn1 [PZA, pyrazinamide]
half-life [min]: 156

###

# TEST METHOD NOTES: in vivo
# DETAILS: C3HeB/FeJ, mouse, po, 25 mg/kg, t1/2, C3HeB/FeJ, uninvolved lung, single 25 mg/kg oral dose of BDQ

CHEM SMILES: COc1nc2ccc(Br)cc2cc1[C@@H](c1ccccc1)[C@@](O)(CCN(C)C)c1cccc2ccccc12
half-life: 3.5 days
